Every entry's value here was drawn from ChEMBL document CHEMBL4184282.

The molecules below have reported pIC50 for UniProt P03303.
Sequence (P03303 1538-1719 limits assumed): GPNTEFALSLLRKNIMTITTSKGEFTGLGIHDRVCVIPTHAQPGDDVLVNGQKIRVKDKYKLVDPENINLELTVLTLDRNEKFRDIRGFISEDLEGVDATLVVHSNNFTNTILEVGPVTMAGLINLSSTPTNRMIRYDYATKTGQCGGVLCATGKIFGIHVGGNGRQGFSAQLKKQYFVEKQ
Square brackets hold non-standard residues; d marks the D form. Peptide text beside a SMILES is read from it. * marks the point of attachment. ξ: configuration not given here. Cbz = O=C(OCc1ccccc1)*; ξDap = NCC(N)C(=O)O
Just the number, please; pIC50 means minus log10 of the concentration in mol/L.

Sample answers from the record:
CC(=O)NCC(C=O)NC(=O)[C@H](Cc1ccccc1)NC(=O)[C@H](CC(C)C)NC(=O)OCc1ccccc1 (stereo partly drawn) (Cbz-Leu-Phe-[ξDap](Ac)-aldehyde)	8.15
Cc1cc(C(=O)N[C@H]2CCCCN(C)C(=O)CC[C@@H](C=O)NC(=O)[C@@H]3C[C@@H](c4ccccc4)CN3C2=O)no1	5.13
Cc1cc(C(=O)N[C@H]2C/C=C/CCCO[C@H]3CCN(C3)C(=O)CC[C@@H](C=O)NC(=O)[C@H](Cc3ccc(F)cc3)NC2=O)no1	8.70
Cc1cc(C(=O)N[C@H]2CNC(=O)C[C@H]3CCCN3C(=O)CC[C@@H](C=O)NC(=O)[C@H](Cc3ccc(F)cc3)NC2=O)no1	8.70
Cc1cc(C(=O)N[C@@H]2C(=O)N[C@@H](Cc3ccc(F)cc3)C(=O)N[C@H](C=O)CCC(=O)N(C)Cc3cccc2c3)no1	8.10

Value (pIC50, UniProt P03303) for record "Cc1cc(C(=O)N[C@H]2CCCCNC(=O)CC[C@@H](C=O)NC(=O)[C@H](Cc3ccc(F)cc3)NC2=O)no1" = 5.49

Value (pIC50, UniProt P03303) for record "Cc1cc(C(=O)N[C@H]2CNC(=O)[C@H]3CCCN3C(=O)CC[C@@H](C=O)NC(=O)[C@H](Cc3ccc(F)cc3)NC2=O)no1" = 8.22
